# Assay Explanation: Inhibitory effect on human liver uridine phosphorylase
Metric: Ki (µM)
# value in µM; strip the unit string

Please review the following examples before continuing.
>>> quantitative_result("O=C1NC(=O)C(Cc2ccccc2OCc2ccccc2)C(=O)N1")
41.8
>>> quantitative_result("O=C1NC(=S)NC(=O)C1Cc1cccc(OCc2ccccc2)c1")
3.7
>>> quantitative_result("O=C1NC(=O)C(Cc2cccc(OCc3ccccc3)c2)C(=O)N1")
2.3

Could you now consider this next compound?
Query: Given O=C1NC(=O)C(Cc2ccc(OCc3ccccc3)cc2)C(=O)N1 , state its recorded Ki.
Reply: 118
